protocol_text: Components of the Cytosolic LPS Sensing Pathway: Gene Identification via Genome-wide siRNA Screen;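 also: robust z of the log signal after scaling to non-targeting control siRNA wells of the plate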
conditions: RAW264.7 macrophages, IL-1a HTRF, actives lie on both sides, screened at 100 nM (by protocol), cells primed 5 h with Pam3CSK4 first
The campaign covered roughly 53,000 sequences. About 3,700 (7%) were called active. Shown is part of a subset that was picked to be rich in actives.
z-score by entry:
The answer should be written as a number, with no unit following it.

Given item GGGAGCUUUGGAAAUUUUATT against Zbtb3 , the value recorded as its z-score is 0.451

Given item GCAUGAAUUUUGCACGGACTT against Rad18 , the value recorded as its z-score is 1.04

***
Given item GGUGAAACCUGUCAUUCACTT against Dcdc2a , the value recorded as its z-score is -0.405

Given item GCAUCAGAUUAUCUCACUGTT against Mtrf1l , the value recorded as its z-score is 0.261
